The reported measurements were obtained from the nanobody polyreactivity screen of Harvey et al. (2022).

METHOD_DESCRIPTION: yeast display, Sf9 membrane polyspecificity reagent, FACS + sequencing; frameworks hold sequencing errors

SEQ	polyreactivity (PSR sort gate)
QVQLVESAGGLVQAGASLRLSCAASGYIFFGNAMGWYRQAPGKERELVAAIRWRGTSTYYADSVKGRFTISRDNAKNTVYLQMNSLKPEDSAVYYCAADVVRSNFYGTFLYDYDYWGQGTQVTVSS	low polyreactivity
QVQLVESGGGLVQAGGSLRLSCAASGSTFTRYVMGWYRQAPGKERELVAAISKRGGSTYYADSVKGRFTISRDNAKNTVYLQMNSLKPEDTAVYYCNRVSRAPFDYWGQGTQVTVSS	high polyreactivity
KVQLVESGGGLVQAGGSLRLTCAASGSTFYIYAMGWYRPAPGKERELVATISSTGSTHYADSVKGRFTISRDNAKNTVFLQMNSLKPEDTAGYYCNPVYFGRYSRRDHWGQGTQVTVSS	high polyreactivity
QVQLVESGGGLVQAGGSLRLSCAASGITFSYYAMGWYRQAPGKERELVAAINSSGGSTYYADSVKGRFTISRDNAKNTVYLQMNSLKPEDTAVYYCNADYGYHNHLFWGYYGWSSDHWGQGTQVTVSS	low polyreactivity
QVQLVESGGAFVQAGGSLRLSCAASGIIFERNAMGWYRQAPGNERELVAAISGGGSTNYADSVKGRFTISRDNEMNTVYLQRISLKPDDTAVYYCAGKAARRRGYYYWGQGTQVTVSS	high polyreactivity
QVQLVESGGGLVQAGGSLRLSCAASGSTYDNNRMGWYRQATGKERELVASITFNVGSTYYADSVKGRFTISRDNAKNTVYLQMNSLKPEETAVYYCAADDLNLSQALGYDYWGQGTQVTVSS	low polyreactivity
QVQLVESGGGLVQAGGSLRLSCAASGRIFAFNAMGWYRQAPGKERELVADITSSGVNTYYADSVKGRFTISRDNAKNTVYLQMNSLKPEDTAVYYCAARSYLRWWVGMEYCGQGTQVTVSS	low polyreactivity
QVQLVESGGGLVQAGGSLRLSCAASGSIFGLYAMGCYRQAPGKERELVAAITWSSGNTYYADSVKGRFTISRDNAKNTVYLQMNSLKPEDTAVYYCAAEQIYFVYWEDDYWGQGTQVTVSS	high polyreactivity
HVQRVDSGAGLVQPRCSLRISCAASGNTFKQYAMGWYRQAPGKDRELVAAIRRSGSTYYADSVKGRFTISRDNAKYTVYLEMNSLKPEDPAVYYCNARIYRLYSTYSWTRYDYWGQGTQVTVSS	high polyreactivity
QVQLVESGGGLVQAGGSLRLSCAASGRTSWVNAMGWYRQAPGKERELVAAIVSGGTTKYADSVKGRFTISRDNAKNTVYLQMNSLKPEDTAVYYCAVRYSKRSVYTYGFNYWGQGTQVTVSS	high polyreactivity
QVQLVESGGGLVQAGGSLRLSCAASGIIYKYAMGWYRQAPGKERELVAAISSGASTNYADSVKGRFTISRDNAKNTVYLQMNSLKPEDTAVYYCNVTTGASFEFDYWGQGTQVTVSS	low polyreactivity
QVQLVESGGGLVQAGGSLRLSCAASGIIFESYSMGWYRQAPGKERELVAAISWDGGSTYYADSVKGRFTISRDNAKNTVYLQMNSLKPEDTAVYYCAAESYGIYDGYDYWGQGTQVTVSS	high polyreactivity
QVQLVESGGGLVQAGGSLRLSCAASGRIFSRYTMGWYRQAPGKERELVAAISYSGGRTYYADSVKGRFTISRDNAKNTVYLQMYSLKPEDTAVYYCAAPRSVVGAYGFYYWGQGTQVTVSS	high polyreactivity
QVKLVESGAGLVHAGGSLRLSCAASGFIFFYYAMGRYRQAPGKERYLVATISANGGNTYYADSVKGRFTISRDNAKNTVYLQMNRLKPEDTAVYYCARYTWYLRDWQWYYWGDEDYWGQGTQVTVSS	high polyreactivity
QVQLVETVVGLVQAGGSLRLSCAASGSIFGFYDMGWYRQAPGKERELVAVISVSDGSTYYADSVKGRFTISRDNAKNTVYLQMNSLKAEDTAVYYCAATPRGSYGYYYWGQGTQVTVSS	low polyreactivity
QVQLVESGGGLVQAGGSLRLSCAASGFTFYRYAMGWYRQAPGKERELVAAITWSGGSTYYADSVKGRFTISRDNAKNTVYFQMNSLKPEDTAVYYCAASRWIFQVNDYDYWGQGTQGTVSS	high polyreactivity
QVQLQESGGGLVQASGSIFHEPTMGWYRQAPGKERELVAGISSGANTYYADSGKGRCTISRDNAKNTVYLQMNSLKPEDTAVYYCNARRRYSLTMDYWGHGTQVTVSS	high polyreactivity
QVQLVESGGGLVQAGGSLRLSCAASGRIFVSYTMGWYRQAPGKERELVAAIRGTGSTYYADSVKGRFTISRDNAKNTVYLQMNSLKPEDTAVYYCNADYLRWDIWYWHGYDYWGQGTQVTVSS	high polyreactivity
QVQLVESGGGLVQAGGSLRLSCAASGSTFSSYAMGWYRQAPGKERELVAAISSRGGRTYYADSVKGRFTISRDNAKNTVYLQMNSLKPEDTAVYYCAVVPFTEHDYWGQGTQVTVSS	high polyreactivity
QVQLVESGGGLVQAGGSLRLSCAASGSTFDYYAMGRYRQAPGKERELVAAITTGGRTYYADSVKGRFTISRDNAKNTVYLQMNSLKPEDTAVYYCRERDYWGQGTQVTVSS	low polyreactivity
QVQLVESGGGLVQAGGSLRLSCAASGRIFIGNAMGWYRQAPGKERELVADISYSGGTTYYADSVKGRFTISRENAKNTVYVQMNSLKPVDTAVYYCNKYDPRPVWQGWVWIEYYYWGQGTQVTVSS	low polyreactivity
